target: c-KIT VVDV kinase (Homo sapiens, UniProt P10721, D816V/DEL559-560); construct: This construct contains residues T544-V976 of cKit; GST (N); TEV cleavage site (internal); assay: cKIT-VVDV kinase Assay; details: enzymatic assay; V559+V560 deletions and D816V mutation
Sequence (P10721 with tags, fused parts or gaps DEL559-560/D816V): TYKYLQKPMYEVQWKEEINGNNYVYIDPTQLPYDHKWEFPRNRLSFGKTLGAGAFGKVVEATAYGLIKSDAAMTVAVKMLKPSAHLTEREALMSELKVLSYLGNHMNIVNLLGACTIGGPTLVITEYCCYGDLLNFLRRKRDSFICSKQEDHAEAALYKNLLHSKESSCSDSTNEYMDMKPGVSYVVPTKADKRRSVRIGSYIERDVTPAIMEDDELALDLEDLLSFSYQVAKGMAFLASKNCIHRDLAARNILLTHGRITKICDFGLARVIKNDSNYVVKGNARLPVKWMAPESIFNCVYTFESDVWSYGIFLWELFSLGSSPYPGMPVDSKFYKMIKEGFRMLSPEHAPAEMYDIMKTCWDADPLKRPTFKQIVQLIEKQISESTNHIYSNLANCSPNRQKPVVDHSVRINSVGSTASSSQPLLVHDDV
Measured IC50 values are reported for all entries that follow.

Worked cases, IC50 given:
- CCn1c(=O)c(-c2cc(NC(=O)Nc3cccc(F)c3)c(F)cc2Cl)cc2cnc(NCCOC)cc21 [Example 28]: 10 to 100 nM
- CNc1cc2c(cn1)cc(-c1cc(NC(=O)Nc3cccc(C#N)c3)c(F)cc1Cl)c(=O)n2C [Example 9]: 10 to 100 nM
- CCn1c(=O)c(-c2cc(NC(=O)Nc3ccccc3F)c(F)cc2Cl)cc2cnc(NC)cc21 [Example 25]: < 10 nM
- CNc1cc2c(cn1)cc(-c1cc(NC(=O)Nc3ccccc3)c(F)cc1Cl)c(=O)n2C(C)C [Example 22]: < 10 nM

Write down measured IC50 (c-KIT VVDV kinase (Homo sapiens, UniProt P10721, D816V/DEL559-560)) for this molecule. CCn1c(=O)c(-c2cc(NC(=O)Nc3cccc(F)c3)c(F)cc2Cl)cc2cnc(NC)cc21 [Example 24]
< 10 nM

Jot down IC50 (c-KIT VVDV kinase (Homo sapiens, UniProt P10721, D816V/DEL559-560)) of CCn1c(=O)c(-c2cc(NC(=O)Nc3ccccc3)c(F)cc2Cl)cc2cnc(NCCOC)cc21 [Example 27] .
10 to 100 nM

Fill in: IC50 on c-KIT VVDV kinase (Homo sapiens, UniProt P10721, D816V/DEL559-560), entry CCn1c(=O)c(-c2cc(NC(=O)Nc3ccccc3)c(F)cc2Cl)cc2cnc(NC(=O)N(C)C)cc21 [Example 70]
< 10 nM

Provide IC50, tested on c-KIT VVDV kinase (Homo sapiens, UniProt P10721, D816V/DEL559-560), for CNc1cc2c(cn1)cc(-c1cc(NC(=O)Nc3cccc(F)c3F)c(F)cc1Cl)c(=O)n2C [Example 10] .
10 to 100 nM

----------
target: c-KIT kinase (Homo sapiens); test: c-KIT kinase Assay; assay type: biochemical; set-up: cKIT residues T544-V976; GST (N); TEV cleavage site (internal); purchased deCODE Biostructures; conditions: enzymatic assay, ATP 200 µM; read-out: KIT (wt) IC50
Sequence (P10721 544-976): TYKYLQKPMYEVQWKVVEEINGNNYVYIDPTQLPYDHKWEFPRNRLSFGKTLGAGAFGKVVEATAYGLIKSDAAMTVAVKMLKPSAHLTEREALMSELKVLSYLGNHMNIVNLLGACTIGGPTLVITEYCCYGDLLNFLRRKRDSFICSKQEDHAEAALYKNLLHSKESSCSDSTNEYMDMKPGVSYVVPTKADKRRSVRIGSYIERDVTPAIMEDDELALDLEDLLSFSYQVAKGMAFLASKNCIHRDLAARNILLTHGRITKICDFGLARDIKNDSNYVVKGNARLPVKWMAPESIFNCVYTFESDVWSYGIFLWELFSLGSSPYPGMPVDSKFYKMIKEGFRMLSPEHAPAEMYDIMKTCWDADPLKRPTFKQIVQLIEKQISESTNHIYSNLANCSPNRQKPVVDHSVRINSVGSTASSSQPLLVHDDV
pIC50: −log10 of the molar value.
compounds and their reported pIC50

• CNc1cc2c(cn1)cc(-c1cc(NC(=O)Nc3cccc(F)c3)c(F)cc1F)c(=O)n2C(C)C = > 8.00
• CCn1c(=O)c(-c2cc(NC(=O)Nc3cccc(F)c3F)c(F)cc2Cl)cc2cnc(NC)cc21 = > 8.00
• CC(C)n1c(=O)c(-c2cc(NC(=O)Nc3cccc(F)c3)c(F)cc2Cl)cc2cnc(NC(=O)N(C)C)cc21 = 7.00 to 8.00

Provide one value: measured pIC50 of "CNc1cc2c(cn1)cc(-c1cc(NC(=O)Nc3cccc(F)c3)c(F)cc1Cl)c(=O)n2C(C)C"
> 8.00

Determine its reported pIC50: "CCn1c(=O)c(-c2cc(NC(=O)Nc3cccc(CN4CCN(C)CC4)c3)c(F)cc2Br)cc2cnc(NC)cc21"
> 8.00

Answer with reported pIC50 of "CCn1c(=O)c(-c2cc(NC(=O)Nc3ccccc3)c(F)cc2Cl)cc2cnc(NCCCOC)cc21"
> 8.00

Annotate the compound "CCn1c(=O)c(-c2cc(NC(=O)Nc3ccccc3)c(F)cc2C)cc2cnc(NC(=O)N3CCC3)cc21" with its measured pIC50.
7.00 to 8.00

Recall and state the measured pIC50 for "CC(C)n1c(=O)c(-c2cc(NC(=O)Nc3ccccc3)c(F)cc2Cl)cc2cnc(NC(=O)N(C)C)cc21" .
7.00 to 8.00

# return recorded pIC50 for entry "CCn1c(=O)c(-c2c(Cl)ccc(NC(=O)Nc3ccccc3)c2F)cc2cnc(NC)cc21"
7.00 to 8.00

Identify the reported pIC50 for the following entry. "CCn1c(=O)c(-c2cc(NC(=O)Nc3ccc(F)c(CN4CCN(C)CC4)c3)c(F)cc2Cl)cc2cnc(NC)cc21"
> 8.00

----------
Measured IC50, listed per entry for reference.
molecular target: Phospho-KIT (Tyr719) (Homo sapiens, UniProt P10721, K642E); construct: endogenous in cells; host or cells: GIST882; assay: GIST882 KIT Western Blot; type: cell-based; conditions: GIST882 cells, 4 hours, serum-free medium; read-out: pKIT suppression by western blot analysi GIST 882
Sequence (P10721 26-976 K642E): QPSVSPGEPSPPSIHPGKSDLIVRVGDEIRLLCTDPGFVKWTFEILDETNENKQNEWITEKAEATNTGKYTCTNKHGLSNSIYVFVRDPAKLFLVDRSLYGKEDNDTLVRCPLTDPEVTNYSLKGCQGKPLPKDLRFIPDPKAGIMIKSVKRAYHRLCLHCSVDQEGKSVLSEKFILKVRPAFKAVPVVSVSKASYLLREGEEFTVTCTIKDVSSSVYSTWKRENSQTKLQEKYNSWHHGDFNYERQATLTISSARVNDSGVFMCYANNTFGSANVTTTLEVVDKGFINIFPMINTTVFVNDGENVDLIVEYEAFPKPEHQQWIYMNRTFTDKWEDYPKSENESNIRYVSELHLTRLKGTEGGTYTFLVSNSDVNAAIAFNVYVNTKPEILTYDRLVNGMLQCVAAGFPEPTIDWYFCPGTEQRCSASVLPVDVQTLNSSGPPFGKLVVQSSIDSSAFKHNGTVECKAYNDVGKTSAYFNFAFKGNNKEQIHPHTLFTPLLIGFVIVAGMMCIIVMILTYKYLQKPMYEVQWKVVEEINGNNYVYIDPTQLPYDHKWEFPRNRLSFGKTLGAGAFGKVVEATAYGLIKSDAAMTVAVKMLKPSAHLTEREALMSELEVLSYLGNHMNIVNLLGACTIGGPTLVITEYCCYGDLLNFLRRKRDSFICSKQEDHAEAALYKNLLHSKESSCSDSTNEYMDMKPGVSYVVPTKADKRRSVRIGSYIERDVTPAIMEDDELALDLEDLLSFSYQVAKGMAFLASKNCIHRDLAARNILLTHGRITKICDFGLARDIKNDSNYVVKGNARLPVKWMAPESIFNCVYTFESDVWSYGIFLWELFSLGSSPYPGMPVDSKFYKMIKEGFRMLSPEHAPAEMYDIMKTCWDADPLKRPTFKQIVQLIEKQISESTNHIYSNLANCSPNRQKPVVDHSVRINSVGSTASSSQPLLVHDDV

• CCn1c(=O)c(-c2cc(NC(=O)Nc3cc(F)cc(F)c3)c(F)cc2Cl)cc2cnc(NC(C)=O)cc21 = 0.01 to 0.1 µM
• CCn1c(=O)c(-c2cc(NC(=O)Nc3cccc4ccccc34)c(F)cc2C)cc2cnc(NC)cc21 = 0.1 to 1 µM
• CCn1c(=O)c(-c2cc(NC(=O)Nc3ccccc3F)c(F)cc2Cl)cc2cnc(NC)cc21 = 0.01 to 0.1 µM
• CCn1c(=O)c(-c2cc(NC(=O)Nc3cccc(F)c3)c(F)cc2Cl)cc2cnc(NC)cc21 = 0.01 to 0.1 µM

Attention now turns to another entry.
For the compound "CCn1c(=O)c(-c2cc(NC(=O)Nc3ccccc3)c(F)cc2Cl)cc2cnc(NC)cc21" , give its reported IC50.
0.01 to 0.1 µM

----------
biological target: c-KIT T670I kinase (Homo sapiens, UniProt P10721, T670I); construct: The construct contains residues T544-V976 of cKit; GST (N); TEV cleavage site (internal); experiment: c-KIT T670I kinase assay; details: enzymatic assay
Sequence (P10721 544-976 T670I): as the sequence (P10721 544-976) above, with T127I counted along it
pIC50: −log10 of the molar value.
Measured pIC50 by item

Recorded results for 2 compounds are shown here.
- CCn1c(=O)c(-c2cc(NC(=O)Nc3ccccc3)c(F)cc2C)cc2cnc(NC)cc21: 7.00 to 8.00
- CC(=O)Nc1cc2c(cn1)cc(-c1cc(NC(=O)Nc3ccccc3)c(F)cc1Cl)c(=O)n2C(C)C: 7.00 to 8.00

Name the recorded pIC50 of the item "CNc1cc2c(cn1)cc(-c1cc(NC(=O)Nc3cccc(F)c3)c(F)cc1C)c(=O)n2C(C)C" in your answer.
< 6.00

----------
Entries and their pIC50
target: c-KIT T670I kinase (Homo sapiens, UniProt P10721, T670I); construct: The construct contains residues T544-V976 of cKit; GST (N); TEV cleavage site (internal); assay: c-KIT T670I kinase assay; details: enzymatic assay
pIC50: −log10 of the molar value.

• CCn1c(=O)c(-c2cc(NC(=O)Nc3ccccc3)c(F)cc2Cl)cc2cnc(NC(=O)N3CC[C@@H](N(C)C)C3)cc21 = 7.00 to 8.00
• CCn1c(=O)c(-c2cc(NC(=O)Nc3ccccc3)c(F)cc2C)cc2cnc(NC(=O)N3CC(N(C)C)C3)cc21 = 7.00 to 8.00
• CCn1c(=O)c(-c2cc(NC(=O)Nc3ccccc3)c(F)cc2Cl)cc2cnc(NC(=O)N3CC(O)C3)cc21 = 7.00 to 8.00

Identify measured pIC50 associated with "CCn1c(=O)c(-c2cc(NC(=O)Nc3ccccc3)c(F)cc2Cl)cc2cnc(NC(=O)N3CC(N(C)C)C3)cc21"
7.00 to 8.00

Assign pIC50 to the following record: "CCn1c(=O)c(-c2cc(NC(=O)Nc3ccccc3)c(F)cc2Cl)cc2cnc(NC(C)=O)cc21"
7.00 to 8.00

Query pIC50 for "CC(C)n1c(=O)c(-c2cc(NC(=O)Nc3cccc(F)c3)c(F)cc2Cl)cc2cnc(NC(=O)N(C)C)cc21"
7.00 to 8.00

Provide one value: measured pIC50 of "CCn1c(=O)c(-c2cc(NC(=O)Nc3cccc(F)c3F)c(F)cc2Cl)cc2cnc(NC)cc21"
7.00 to 8.00

Indicate the recorded pIC50 value for this compound: "CCn1c(=O)c(-c2cc(NC(=O)Nc3ccc(F)c(CN4CCN(C)CC4)c3)c(F)cc2F)cc2cnc(NC)cc21"
7.00 to 8.00

For "CCn1c(=O)c(-c2cc(NC(=O)Nc3ccccc3F)c(F)cc2Cl)cc2cnc(NC)cc21" , write its pIC50.
> 8.00

Recall and state the measured pIC50 for "CCn1c(=O)c(-c2cc(NC(=O)Nc3cccc(F)c3)c(F)cc2Br)cc2cnc(NC)cc21" .
7.00 to 8.00

Hello, please tell me recorded pIC50 for this one: "CNc1cc2c(cn1)cc(-c1cc(NC(=O)Nc3cccc4ccccc34)c(F)cc1Cl)c(=O)n2C"
7.00 to 8.00

Give the reported pIC50 for this compound. "CCn1c(=O)c(-c2cc(NC(=O)Nc3cccc(F)c3)c(F)cc2Cl)cc2cnc(NCCOC)cc21"
7.00 to 8.00

Supply measured pIC50 of "CNc1cc2c(cn1)cc(-c1cc(NC(=O)Nc3ccccc3)c(F)cc1Cl)c(=O)n2C(C)C" in your reply.
6.00 to 7.00

Tell me its pIC50 given "CCn1c(=O)c(-c2cc(NC(=O)Nc3cccc(F)c3)c(F)cc2Cl)cc2cnc(N)cc21" as the entry.
> 8.00

Given "CCn1c(=O)c(-c2cc(NC(=O)Nc3ccc(F)c(CN4CCN(C)CC4)c3)c(F)cc2C)cc2cnc(NC=O)cc21" , respond with its pIC50.
6.00 to 7.00

// Input: "CCn1c(=O)c(-c2cc(NC(=O)Nc3cccc(F)c3)c(F)cc2F)cc2cnc(NC)cc21" . Output its pIC50 only.
7.00 to 8.00

Entry "CCn1c(=O)c(-c2cc(NC(=O)Nc3ccc(F)c(CN4CCN(C)CC4)c3)c(F)cc2C)cc2cnc(N)cc21" needs its pIC50 filled in; supply it.
7.00 to 8.00

Return reported pIC50. Input compound: "CCn1c(=O)c(-c2cc(NC(=O)Nc3ccccc3)c(F)cc2C)cc2cnc(NCCOC)cc21"
6.00 to 7.00

Report measured pIC50; entry is "CCn1c(=O)c(-c2cc(NC(=O)Nc3cccc(F)c3)c(F)cc2C)cc2cnc(NC)cc21"
7.00 to 8.00
